// provenance: patent US20240082346A1

# Target system: T1, Human chemokine receptor CXCR4 (human, UniProt P61073 1-352)
# T1 construct: whole, on cells; Membranes of Chem-1 cells expressing human CXCR4 (0.5 ug membrane protein per aliquot); also called C-X-C chemokine receptor type 4; fusin
# T1 sequence (P61073 whole entry): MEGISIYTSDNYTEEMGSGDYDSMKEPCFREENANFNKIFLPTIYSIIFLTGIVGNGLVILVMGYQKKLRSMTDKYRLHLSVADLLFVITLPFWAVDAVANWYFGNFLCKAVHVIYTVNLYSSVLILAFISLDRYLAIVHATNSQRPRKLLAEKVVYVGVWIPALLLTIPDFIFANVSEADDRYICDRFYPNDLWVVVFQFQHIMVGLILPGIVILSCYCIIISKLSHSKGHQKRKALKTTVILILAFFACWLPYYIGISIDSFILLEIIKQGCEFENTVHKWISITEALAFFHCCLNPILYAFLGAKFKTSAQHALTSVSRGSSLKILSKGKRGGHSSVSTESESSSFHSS
# Test description: displacement of [125I]SDF-1α (0.03 nM) from membranes of Chem-1 cells expressing human CXCR4
Bridge positions count the residues as written; N and C are the ends. Square brackets hold non-standard residues; d marks the D form. * marks the point of attachment. 2Nal = N[C@@H](Cc1ccc2ccccc2c1)C(=O)O; Lauroyl = CCCCCCCCCCCC(=O)*; hCys = N[C@@H](CCS)C(=O)O; Bz = O=C(c1ccccc1)*; Mpa = O=C(O)CCS; iPr = CC(C)*
# strict inequality: Binding Kb < 0.2 nM yields MET, everything else yields NOT MET

Binder	Class assignment
[Mpa]YK(iPr)[dR][2Nal]GCK(iPr)G-NHEt (disulfide 1-7; also: acetate salt, Acetate salt; also called MLB-014) [cyclo[Mpa-Tyr-Lys(iPr)-(D-Arg)-2Nal-Gly-Cys]-Lys(iPr)-Gly-NH(Et)]	MET
Ac-[hCys]YK(iPr)[dR][2Nal]GCK(iPr)G-NH2 (disulfide 1-7; also: acetate salt, Acetate salt; also called MLB-010) [Ac-cyclo[hCys-Tyr-Lys(iPr)-(D-Arg)-2Nal-Gly-Cys]-Lys(iPr)-Gly-NH2]	MET
[Mpa]YK(iPr)[dR][2Nal]GCK(iPr)K(Lauroyl)-NHEt (disulfide 1-7; also: acetate salt, Acetate salt; also called MLB-028) [cyclo[Mpa-Tyr-Lys(iPr)-(D-Arg)-2Nal-Gly-Cys]-Lys(iPr)-Lys(lauroyl)-NH(Et)]	NOT MET
[Mpa]YK(iPr)[dR][2Nal]GCK(iPr)K(Ac)-NHEt (disulfide 1-7; also: acetate salt, Acetate salt; also called MLB-027) [cyclo[Mpa-Tyr-Lys(iPr)-(D-Arg)-2Nal-Gly-Cys]-Lys(iPr)-Lys(Ac)-NH(Et)]	MET
Bz-CYK(iPr)[dR][2Nal]GCK(iPr)G-NH2 (disulfide 1-7; also: acetate salt, Acetate salt; also called MLB-023) [Benzoyl-cyclo[Cys-Tyr-Lys(iPr)-(D-Arg)-2Nal-Gly-Cys]-Lys(iPr)-Gly-NH2]	NOT MET
